Provenance of the data: PubChem BioAssay AID1240

- Measured Target: Bcl-2-like protein 10 (Homo sapiens)
- Procedure Summary: TR3 peptide-Bcl-B binding displacers, biochemical primary FP assay, phenotype converters (AID 1240);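 further: 0% = Bcl-B with tracer peptide and DMSO and 100% = tracer peptide lacking Bcl-B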
- Experimental Context: GST-Bcl-B / FITC-TR3 peptide fluorescence polarization; stronger effect = higher value; compound at 3.75 mg/L
Out of some 50,000 compounds screened, about 800 (1.6%) showed an effect of 50% or more. Only a selection was taken, and strong results are over-represented in it overall.
Endpoint Label: displacement (%)

1. COc1ccc(NC(=O)Nc2ccccc2C(F)(F)F)cc1 | 8.4
2. CCOC(=O)c1ccc(NC(=O)CN(c2ccc(Oc3ccccc3)cc2)S(C)(=O)=O)cc1 | -2.7
3. Cc1ccc(S(=O)(=O)NCCOc2ccccc2Cl)cc1[N+](=O)[O-] | 13
4. COc1ccc(C(=O)Nc2ccc(N(C)C)cc2)cc1 | 6
5. O=C(Nc1c(C(=O)N2CCN(Cc3ccccc3)CC2)cnn1-c1ccccc1)c1cccc(F)c1 | 3
6. CC(NC(=O)c1ccc(F)cc1)C1CC1 (stereo unspecified) | 4.6
7. O=C(CCCC(=O)OCC(F)(F)C(F)F)Nc1nccs1 | 9.8
8. Nc1nnc(CCC(=O)c2ccccc2)s1 | 3.5
9. COc1ccc(NC(=O)CN(c2ccc(Cl)cc2)S(C)(=O)=O)c(OC)c1 | 10.7
10. COc1cc(/C=C2/C(=O)NC(=O)N(c3cccc(C)c3)C2=O)ccc1OCC(=O)O | -14.8
11. Cc1ccccc1OCC(=O)N1CCCc2ccccc21 | -4.9
